# PROTOCOL_NOTES: Acute toxicity in Albino mouse assessed as change in serum creatine level at 50 to 2000 mg/kg, po measured after 14 days (reference value: 0.9 mg/dl)
# Type: organism-based
# STUDY_CONDITIONS: in vivo, 336 h, dose 50-2000 mg/kg, time 14 day
READOUT_NAME: Activity

Ask: Entry O=C1C(Cl)=C(N2C(=O)C(Cl)C2c2ccc([N+](=O)[O-])cc2)C(=O)c2ccccc21 (configuration not stated) : reported Activity = ?
Result: 0.33 mg/dL

Ask: What about this molecule? `NC1=C(Cl)C(=O)c2ccccc2C1=O`
Result: 0.9 mg/dL

Ask: CCOc1cc(C2C(Cl)C(=O)N2C2=C(Cl)C(=O)c3ccccc3C2=O)ccc1O (configuration not stated) , same question.
Result: < 0.3 mg/dL

Ask: Also COc1ccc(C2C(Cl)C(=O)N2C2=C(Cl)C(=O)c3ccccc3C2=O)cc1 (configuration not stated) , if possible.
Result: 0.8 mg/dL

Ask: What would you report for O=C1C(Cl)=C(Cl)C(=O)c2ccccc21 [Dichlon] ?
Result: 0.8 mg/dL

Ask: Now the molecule CN(C)c1ccc(C2C(Cl)C(=O)N2C2=C(Cl)C(=O)c3ccccc3C2=O)cc1 (configuration not stated)
Result: 0.7 mg/dL

Ask: Follow-up entry: O=C1C(Cl)=C(N2C(=O)C(Cl)C2c2ccc(Cl)cc2)C(=O)c2ccccc21 (configuration not stated)
Result: 0.41 mg/dL

###

Please go through the items and note down their viability at 25 ug/ml.
# PROTOCOL_NOTES: Cytotoxicity against african green monkey Vero cells assessed as cell viability at 25 ug/ml by MTT assay
# Type: toxicity, cell-based
# STUDY_CONDITIONS: chlorocebus sabaeus, at 25 µg/mL, read-out: Activity
Reply numerically in %, unit not repeated.

Ask: Quick one: viability at 25 ug/ml of O=C1C(Cl)=C(N2C(=O)C(Cl)C2c2ccc(Cl)cc2)C(=O)c2ccccc21 (configuration not stated) ?
Result: 38

Ask: Lookup O=C1C(Cl)=C(N2C(=O)C(Cl)C2c2ccc([N+](=O)[O-])cc2)C(=O)c2ccccc21 (configuration not stated)
Result: 46.2

Ask: Queued: CN(C)c1ccc(C2C(Cl)C(=O)N2C2=C(Cl)C(=O)c3ccccc3C2=O)cc1 (configuration not stated)
Result: 40.9

Ask: Item: O=C1C(Cl)=C(Cl)C(=O)c2ccccc21 [Dichlon]
Result: 67.1

Ask: And then `NC1=C(Cl)C(=O)c2ccccc2C1=O` , what is it?
Result: 18

Ask: CCOc1cc(C2C(Cl)C(=O)N2C2=C(Cl)C(=O)c3ccccc3C2=O)ccc1O (configuration not stated) ?
Result: 67.8

Ask: Entry to check: COc1ccc(C2C(Cl)C(=O)N2C2=C(Cl)C(=O)c3ccccc3C2=O)cc1 (configuration not stated)
Result: 37.6

###

I'd be grateful if you could share measured Activity for these entries.
# PROTOCOL_NOTES: Acute toxicity in Albino mouse assessed as change in LDH level at 50 to 2000 mg/kg, po measured after 14 days (reference value: 1052 IU/L)
# Format: organism-based
# STUDY_CONDITIONS: in vivo, 336 h, dose 50-2000 mg/kg, time 14 day
A number alone suffices; assume IU/L.

Ask: Quick one: Activity of CN(C)c1ccc(C2C(Cl)C(=O)N2C2=C(Cl)C(=O)c3ccccc3C2=O)cc1 (configuration not stated) ?
Result: 756

Ask: Follow-up item: O=C1C(Cl)=C(Cl)C(=O)c2ccccc21 [Dichlon]
Result: 1030

Ask: Similarly, `NC1=C(Cl)C(=O)c2ccccc2C1=O` ?
Result: 1519

Ask: Proceed to O=C1C(Cl)=C(N2C(=O)C(Cl)C2c2ccc(Cl)cc2)C(=O)c2ccccc21 (configuration not stated)
Result: 134.22

Ask: Okay, and O=C1C(Cl)=C(N2C(=O)C(Cl)C2c2ccc([N+](=O)[O-])cc2)C(=O)c2ccccc21 (configuration not stated) ?
Result: 505

Ask: What do we get for COc1ccc(C2C(Cl)C(=O)N2C2=C(Cl)C(=O)c3ccccc3C2=O)cc1 (configuration not stated) ?
Result: 842

Ask: Further, for CCOc1cc(C2C(Cl)C(=O)N2C2=C(Cl)C(=O)c3ccccc3C2=O)ccc1O (configuration not stated) ?
Result: 470.21

###

Kindly supply the reported viability at 12.5 ug/ml values for the records listed here.
# PROTOCOL_NOTES: Cytotoxicity against african green monkey Vero cells assessed as cell viability at 12.5 ug/ml by MTT assay
# Assay type: toxicity, cell-based
# STUDY_CONDITIONS: chlorocebus sabaeus, at 12.5 µg/mL, read-out: Activity
Lab book: enter the figure in %, no units written.

Ask: Could you share which viability at 12.5 ug/ml value was measured for CCOc1cc(C2C(Cl)C(=O)N2C2=C(Cl)C(=O)c3ccccc3C2=O)ccc1O (configuration not stated) ?
Result: 100

Ask: Try the compound O=C1C(Cl)=C(N2C(=O)C(Cl)C2c2ccc(Cl)cc2)C(=O)c2ccccc21 (configuration not stated)
Result: 69.1

Ask: Consider next the compound CN(C)c1ccc(C2C(Cl)C(=O)N2C2=C(Cl)C(=O)c3ccccc3C2=O)cc1 (configuration not stated) in the same way.
Result: 79.5

Ask: Further, for COc1ccc(C2C(Cl)C(=O)N2C2=C(Cl)C(=O)c3ccccc3C2=O)cc1 (configuration not stated) ?
Result: 68.1

Ask: Now consider O=C1C(Cl)=C(Cl)C(=O)c2ccccc21 [Dichlon] and answer again.
Result: 100

Ask: Thanks! And `NC1=C(Cl)C(=O)c2ccccc2C1=O` ?
Result: 31

Ask: Also, O=C1C(Cl)=C(N2C(=O)C(Cl)C2c2ccc([N+](=O)[O-])cc2)C(=O)c2ccccc21 (configuration not stated) please.
Result: 78

###

# PROTOCOL_NOTES: Acute toxicity in Albino mouse assessed as change in hemoglobin level at 50 to 2000 mg/kg, po measured after 14 days (reference value: 12.8 g/dl)
# Assay type: organism-based
# STUDY_CONDITIONS: in vivo, 336 h, dose 50-2000 mg/kg, time 14 day
Would you mind telling me the reported Activity of each entry?
// units = g/dL; emit number, no label

Ask: Suppose we examine the molecule `NC1=C(Cl)C(=O)c2ccccc2C1=O` ; what Activity value has been reported?
Result: 13.6

Ask: Record: CCOc1cc(C2C(Cl)C(=O)N2C2=C(Cl)C(=O)c3ccccc3C2=O)ccc1O (configuration not stated)
Result: 12.5

Ask: Consider next the molecule CN(C)c1ccc(C2C(Cl)C(=O)N2C2=C(Cl)C(=O)c3ccccc3C2=O)cc1 (configuration not stated) in the same way.
Result: 14.3

Ask: Now consider O=C1C(Cl)=C(N2C(=O)C(Cl)C2c2ccc(Cl)cc2)C(=O)c2ccccc21 (configuration not stated) .
Result: 13.1

Ask: Next record, please: COc1ccc(C2C(Cl)C(=O)N2C2=C(Cl)C(=O)c3ccccc3C2=O)cc1 (configuration not stated)
Result: 13.9

Ask: And what about the molecule O=C1C(Cl)=C(N2C(=O)C(Cl)C2c2ccc([N+](=O)[O-])cc2)C(=O)c2ccccc21 (configuration not stated) ?
Result: 13.2

Ask: Would you kindly repeat that for `O=C1C(Cl)=C(Cl)C(=O)c2ccccc21` ?
Result: 14.3

###

Answer each item with its documented Activity.
# PROTOCOL_NOTES: Acute toxicity in Albino mouse assessed as change in eosinophils at 50 to 2000 mg/kg, po measured after 14 days (reference value: 3%)
# Format: organism-based
# STUDY_CONDITIONS: in vivo, 336 h, dose 50-2000 mg/kg, time 14 day
Could you give me the number in %? Just the number is fine.

Ask: Consider the molecule COc1ccc(C2C(Cl)C(=O)N2C2=C(Cl)C(=O)c3ccccc3C2=O)cc1 (configuration not stated) and give its measured Activity.
Result: 4

Ask: Follow-up entry: O=C1C(Cl)=C(N2C(=O)C(Cl)C2c2ccc(Cl)cc2)C(=O)c2ccccc21 (configuration not stated)
Result: 4

Ask: Try the molecule O=C1C(Cl)=C(N2C(=O)C(Cl)C2c2ccc([N+](=O)[O-])cc2)C(=O)c2ccccc21 (configuration not stated)
Result: 4

Ask: Moving on to the next molecule: CCOc1cc(C2C(Cl)C(=O)N2C2=C(Cl)C(=O)c3ccccc3C2=O)ccc1O (configuration not stated)
Result: 3

Ask: Continue with `NC1=C(Cl)C(=O)c2ccccc2C1=O`
Result: 5

Ask: Okay, and CN(C)c1ccc(C2C(Cl)C(=O)N2C2=C(Cl)C(=O)c3ccccc3C2=O)cc1 (configuration not stated) ?
Result: 5

Ask: Next molecule: O=C1C(Cl)=C(Cl)C(=O)c2ccccc21 [Dichlon]
Result: 3

###

# PROTOCOL_NOTES: Renal toxicity in Albino mouse assessed as change in renal corpuscles at 50 to 2000 mg/kg, po measured after 14 days
# Assay type: organism-based
# STUDY_CONDITIONS: in vivo, 336 h, dose 50-2000 mg/kg, time 14 day
READOUT_NAME: Activity

COMPOUND | Activity
COc1ccc(C2C(Cl)C(=O)N2C2=C(Cl)C(=O)c3ccccc3C2=O)cc1 (configuration not stated) | Non-Toxic
NC1=C(Cl)C(=O)c2ccccc2C1=O | Non-Toxic
CCOc1cc(C2C(Cl)C(=O)N2C2=C(Cl)C(=O)c3ccccc3C2=O)ccc1O (configuration not stated) | Non-Toxic
O=C1C(Cl)=C(Cl)C(=O)c2ccccc21 | Non-Toxic
O=C1C(Cl)=C(N2C(=O)C(Cl)C2c2ccc(Cl)cc2)C(=O)c2ccccc21 (configuration not stated) | Non-Toxic

Ask: What does the data say about its Activity? Entry: CN(C)c1ccc(C2C(Cl)C(=O)N2C2=C(Cl)C(=O)c3ccccc3C2=O)cc1 (configuration not stated)
Result: Non-Toxic

Ask: O=C1C(Cl)=C(N2C(=O)C(Cl)C2c2ccc([N+](=O)[O-])cc2)C(=O)c2ccccc21 (configuration not stated) , same question.
Result: Non-Toxic
